assay_system: Caspase-3 (Homo sapiens, UniProt P42574)
Sequence (P42574 29-175 limits assumed): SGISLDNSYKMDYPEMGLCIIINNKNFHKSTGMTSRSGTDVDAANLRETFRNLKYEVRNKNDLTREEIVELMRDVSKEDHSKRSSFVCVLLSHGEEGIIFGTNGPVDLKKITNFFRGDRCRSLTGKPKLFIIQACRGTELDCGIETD
Sequence (P42574 176-277 limits assumed): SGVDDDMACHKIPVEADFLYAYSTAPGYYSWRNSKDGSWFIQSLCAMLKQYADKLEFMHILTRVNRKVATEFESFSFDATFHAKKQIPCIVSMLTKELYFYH
test_name: Inhibitory concentration against caspase-3
pIC50: −log10 of the molar value.
Given measured pIC50, output Y if it is greater than or equal to 6 and N if not.

Reference set (5 entries):
INSERT INTO results (compound, group_label) VALUES
  ('CC(C)C[C@H](NC(=O)c1cccc2ccccc12)C(=O)N[C@H]1CC(=O)OC1O (stereo partly specified)', 'N'),
  ('CC(C)C[C@H](NC(=O)COc1ccccc1)C(=O)N[C@H]1CC(=O)OC1O (stereo partly specified)', 'N'),
  ('CC(C)C[C@H](NC(=O)CSc1ccc2ccccc2c1)C(=O)N[C@H]1CC(=O)OC1O (stereo partly specified)', 'Y'),
  ('COc1ccc(OCC(=O)N[C@@H](CC(C)C)C(=O)N[C@H]2CC(=O)OC2O)c2ccccc12 (stereo partly specified)', 'Y'),
  ('CC(C)C[C@H](NC(=O)COc1c(Cl)cc(Cl)c2ccccc12)C(=O)N[C@H]1CC(=O)OC1O (stereo partly specified)', 'Y');

Could you please find out whether CC(C)C[C@H](NC(=O)CCSc1cccc2ccccc12)C(=O)N[C@H]1CC(=O)OC1O (stereo partly specified) has pIC50 that meets 6 or exceeds it?
Y

Could you please find out whether CC(C)C[C@H](NC(=O)COc1cccc2c1CCCC2)C(=O)N[C@H]1CC(=O)OC1O (stereo partly specified) has pIC50 that meets 6 or exceeds it?
Y

Could you please find out whether CC(C)C[C@H](NC(=O)COc1cccc2cnccc12)C(=O)N[C@H]1CC(=O)OC1O (stereo partly specified) has pIC50 that meets 6 or exceeds it?
Y

Could you please find out whether CC(C)C[C@H](NC(=O)COc1cccc(-c2ccccc2)c1)C(=O)N[C@H]1CC(=O)OC1O (stereo partly specified) has pIC50 that meets 6 or exceeds it?
Y

Could you please find out whether CC(C)C[C@H](Nc1ccccc1)C(=O)N[C@H]1CC(=O)OC1O (stereo partly specified) has pIC50 that meets 6 or exceeds it?
N

====

assay_system: Caspase-8 (Homo sapiens)
Sequence (Q14790 217-374 limits assumed): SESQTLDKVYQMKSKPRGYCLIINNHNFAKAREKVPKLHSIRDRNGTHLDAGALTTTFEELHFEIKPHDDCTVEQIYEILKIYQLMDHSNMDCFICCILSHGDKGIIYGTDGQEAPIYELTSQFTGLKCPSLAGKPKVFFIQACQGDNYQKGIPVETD
Sequence (Q14790 385-479 limits assumed): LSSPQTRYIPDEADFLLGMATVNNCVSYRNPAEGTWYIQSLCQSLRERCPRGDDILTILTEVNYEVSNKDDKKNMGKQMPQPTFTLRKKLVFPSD
test_name: Inhibitory concentration of compound required against Caspase-8 compared to acylated dipeptides
readout: IC50 (µM)
Your answer should be a plain number; it is taken to be in µM.

INSERT INTO results (compound, readout, measure_unit, value_observed) VALUES
  ('CC(C)C[C@H](NC(=O)[C@H](Cc1ccccc1)NC(=O)OCc1ccccc1)C(=O)N[C@H]1CC(=O)OC1O (some centres undefined)', 'IC50', 'µM', 8.7),
  ('CC(C)C[C@H](NC(=O)[C@H](CCC(=O)O)NC(=O)OCc1ccccc1)C(=O)N[C@H]1CC(=O)OC1O (some centres undefined)', 'IC50', 'µM', 0.03),
  ('CC(=O)N[C@@H](C(=O)O)C(=O)N[C@@H](CCC(=O)O)C(=O)N[C@H](C(=O)N[C@H]1CC(=O)OC1O)C(C)C (some centres undefined)', 'IC50', 'µM', 0.08);

Return the recorded IC50 value; entry: CC(C)C[C@H](NC(=O)COc1ccc2ccccc2c1)C(=O)N[C@H]1CC(=O)OC1O (some centres undefined)
10

====

assay_system: Caspase-8 (Homo sapiens)
test_name: Inhibitory concentration against caspase-8
// classify: if (IC50 < 9 µM) Y else N

INSERT INTO measurements (compound, group_label) VALUES
  ('CC(C)C[C@@H](NC(=O)OCc1ccccc1)C(=O)C[C@H]1CC(=O)OC1O (some centres undefined)', 'N');

is_below(IC50, 9 µM) for CC(C)C[C@H](NC(=O)CCOc1ccc2ccccc2c1)C(=O)N[C@H]1CC(=O)OC1O (some centres undefined) ?
N
